Each record here notes measured PBM E-score.
tgt: Gcr1 (UniProt P07261)
Sequence: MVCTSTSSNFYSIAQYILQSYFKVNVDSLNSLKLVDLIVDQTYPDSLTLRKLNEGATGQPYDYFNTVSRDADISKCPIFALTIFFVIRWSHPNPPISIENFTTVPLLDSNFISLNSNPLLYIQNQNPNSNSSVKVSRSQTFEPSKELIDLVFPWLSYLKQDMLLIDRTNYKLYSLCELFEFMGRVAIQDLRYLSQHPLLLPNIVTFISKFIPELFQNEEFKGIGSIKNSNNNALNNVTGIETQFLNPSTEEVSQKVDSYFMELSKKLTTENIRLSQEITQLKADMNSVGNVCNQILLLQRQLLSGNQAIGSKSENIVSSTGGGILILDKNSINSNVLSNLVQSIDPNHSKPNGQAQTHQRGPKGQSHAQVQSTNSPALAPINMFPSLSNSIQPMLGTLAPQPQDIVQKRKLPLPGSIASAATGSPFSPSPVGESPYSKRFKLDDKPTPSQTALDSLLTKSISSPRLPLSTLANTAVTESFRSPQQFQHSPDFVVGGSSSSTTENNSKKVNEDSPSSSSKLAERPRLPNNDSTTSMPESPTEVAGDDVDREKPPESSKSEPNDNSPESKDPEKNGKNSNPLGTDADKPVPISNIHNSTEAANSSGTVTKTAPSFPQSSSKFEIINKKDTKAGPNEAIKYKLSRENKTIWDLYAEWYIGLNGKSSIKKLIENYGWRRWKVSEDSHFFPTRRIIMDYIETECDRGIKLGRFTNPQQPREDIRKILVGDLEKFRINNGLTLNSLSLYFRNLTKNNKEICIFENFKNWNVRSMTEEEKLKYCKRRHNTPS
testSummary: PBM E-score (8-mer binding enrichment) (E-score (-0.5 to 0.5)); higher = stronger / more preferred TF binding
recordedConditions: protein concentration: 100 nM; construct: GST-full length
In all, about 33,000 sequences were measured (“E-score (-0.5 to 0.5)”: median about -0.011, highest 2% from about 0.28 on). The full list was thinned out, with the highest values kept by preference.

Examples with answers:
> print(dat)
   itemsequence   result
1      GCGCTAAA    0.232
2      CGCATCCC    0.319
3      GCCGAGTA    0.115
4      ACGCAGCA  -0.0163

Task: Param item = ACCCTAGT ; retrieve measured PBM E-score.
Result: -0.0547

Task: PBM E-score lookup needed for GCGCAGAC , thanks.
Result: -0.167

Task: Which PBM E-score reading was recorded for the sequence CGCATCGC ?
Result: -0.0699

Task: Please look up its PBM E-score: ACGCAGCC
Result: 0.304

Task: Consider the sequence CAGCCCCG and give its measured PBM E-score.
Result: -0.107

Task: May I ask what PBM E-score has been recorded for GGTAAAAC ?
Result: -0.056
